FYI, the data here is from patent US20250027068A1.

# system-name: pooled human IgG (human IgG1, 2, 3 and 4) (human); note: test concentration or dose not given here
# protocol-details: cell-based or functional assay
Provide the recorded Enzyme Activity Endpoint Assay: scIgG for the entries that follow.
Answers are plain numbers, in ng/µL.

I have 2 binders here; please give me Enzyme Activity Endpoint Assay: scIgG for each one.
1. PRT-417 (enzyme) MTITSVWTKGVTPPTPEDFRYNNEDVLHAPYVANQGWYDITKTFDGKDNLLCGAATAGNMLHWWFDQNKEEIERYLKKHPEKQKIIFNNQELFDVKAAIDTKDSQTNSKLFNYFRDKAFPNLSARQLGVMPDLVLDMFINGYYLNLGKTQSTDVNRPYQDKDKRGGIFDAVFTRGDQTTLLTARHDLKNKGLNEISDLIKQELTEGKALALSHTYANVRINHVINLWGADFDAEGELIAIYVTDSDANASIGMKKYFVGVNANGKVAISAKKIEGDNIGAQVLGLFTLSTGQDIWQKLS
2. PRT-378 (enzyme) MVTSVWTKGVTPPTNFTYGEDVLHAPYVANQGWYDITKTFNGKDDLLCGAATAGNMLHWWFDQNKEQIENYLKKHPEKQKINFNGEQMFDVKEAIDTKDSQLDSKLFEYFKEKAFPSLSTKHLGVFPDHVIDMFINGYRLSLTNHGPTPVKRGSKDPRGGIFDAVFTRGDQSKLLTNRHDFKEKTLKEISDLIKQELTEGKALGISHTYANVRINHVINLWGADFDAEGNLEAIYVTDSDSNASIGMKKYFVGVNSNGKVAISAKEIEEDNIGAQVLGLFTLSTGQDIWNQTN

Completion:
1. 0
2. 207
